Record form. Attribute: TGI. Fill in for each entry.
System: HOP-62 NSCLC
Experiment: NCI tumour cell line growth inhibition, 48 h

{"Molecule": "CCCCCCCCCCCCCCCCCCNc1ccn(C2OC(CO)C(O)C2O)c(=O)n1 (stereo unspecified)", "Tested Target": "HOP-62 NSCLC", "TGI": "> 100 µM"}
{"Molecule": "C=CCNCCCN1C(=O)c2ccc3c4c(ccc(c24)C1=O)C(=O)N(CCCNCC=C)C3=O", "Tested Target": "HOP-62 NSCLC", "TGI": "1.72 µM"}
{"Molecule": "O=C1c2cc3c(cc2CC12Cc1cc4c(cc1C2=O)CCC4)CCC3", "Tested Target": "HOP-62 NSCLC", "TGI": "> 100 µM"}
{"Molecule": "O=C1CCCCC1=C(I)I", "Tested Target": "HOP-62 NSCLC", "TGI": "57.5 µM"}
{"Molecule": "COc1ccc(C2C(=O)C(Cl)N2Nc2nc(C)cc(=O)[nH]2)cc1OC (stereo unspecified)", "Tested Target": "HOP-62 NSCLC", "TGI": "> 100 µM"}
{"Molecule": "C=CC(C)(C)C(=C)C(=O)N(C)c1ccccc1I", "Tested Target": "HOP-62 NSCLC", "TGI": "> 100 µM"}
{"Molecule": "C=CC(=O)N1CCN(c2nc(OC[C@@H]3CCCN3C)nc3c2CCN(c2cccc4cccc(C)c24)C3)C[C@@H]1CC#N", "Tested Target": "HOP-62 NSCLC", "TGI": "1.64 µM"}
{"Molecule": "CN=CN(C)c1c2ccccc2nc2ccccc12", "Tested Target": "HOP-62 NSCLC", "TGI": "> 100 µM"}

Go through the items and report each one's TGI.
1. CC1=C(C(=O)Nc2cccc(Cl)c2)C(c2ccc([N+](=O)[O-])cc2)C(C(=O)Nc2cccc(Cl)c2)=C(C)N1
2. Cc1nc2sc(C(=O)Nc3cccc4ccccc34)c(N)c2cc1C(=O)/C=C/c1ccccc1
3. CC(O)(/C=C/c1ccccc1)P(=O)(O)c1ccccc1 (stereo unspecified)

stdout:
> 100 µM
2.71 µM
> 100 µM
